target: human H4 receptor (Homo sapiens, UniProt Q9H3N8); construct: expressed in transfected cells; assay: Binding Assay on Recombinant Human Histamine H4 Receptor; conditions: Table 2; [3H] histamine competition binding, membranes of SK-N-MC cells transfected with human H4 receptor; average of results
Sequence (Q9H3N8 whole entry): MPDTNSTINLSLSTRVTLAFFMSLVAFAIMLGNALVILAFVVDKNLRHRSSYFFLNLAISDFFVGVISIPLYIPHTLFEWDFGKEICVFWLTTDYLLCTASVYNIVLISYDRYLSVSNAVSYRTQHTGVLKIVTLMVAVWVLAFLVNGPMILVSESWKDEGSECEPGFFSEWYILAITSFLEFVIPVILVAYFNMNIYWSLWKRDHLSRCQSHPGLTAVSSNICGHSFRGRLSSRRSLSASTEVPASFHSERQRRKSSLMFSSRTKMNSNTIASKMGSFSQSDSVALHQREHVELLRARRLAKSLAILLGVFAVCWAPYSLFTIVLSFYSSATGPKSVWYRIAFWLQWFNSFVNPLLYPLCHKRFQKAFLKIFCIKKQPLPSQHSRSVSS
recorded-metric: Ki (nM)
Report the figure in nM without appending any unit label.

- compound: "COCc1cc(N2CC[C@@H](N)C2)nc(N)n1"
  obs-value: 23

Now for a further compound.
// query Query: Ki; subject: CCCCc1cc(N2CC[C@@H](NC)C2)nc(N)n1
// result 2

###

molecular target: human H4 receptor (Homo sapiens); construct: expressed in transfected cells; assay: Binding Assay on Recombinant Human Histamine H4 Receptor; conditions: Table 2, data marked with an asterisk (*): obtained by the cell harvester method; [3H] histamine competition binding, SK-N-MC membranes
# key: entry, value: Ki
Kindly provide the numeric value in µM only, without the unit symbol.

- compound: "CCCCc1nc(N)nc(N2CC[C@@H](NC)C2)c1OC"
  experimental-target: "human H4 receptor (Homo sapiens)"
  recorded-metric: "Ki"
  quantity-unit: "µM"
  obs-value: 0.039
- compound: "CCCCc1nc(N)nc(N2CC[C@@H](N)C2)c1OC"
  experimental-target: "human H4 receptor (Homo sapiens)"
  recorded-metric: "Ki"
  quantity-unit: "µM"
  obs-value: 0.096
- compound: "Nc1nc(C2Cc3ccccc3C2)cc(N2CC3CCCNC3C2)n1 (centres unmarked)"
  experimental-target: "human H4 receptor (Homo sapiens)"
  recorded-metric: "Ki"
  quantity-unit: "µM"
  obs-value: 0.02
- compound: "COc1c(C2CCCC2)nc(N)nc1N(C)CCN"
  experimental-target: "human H4 receptor (Homo sapiens)"
  recorded-metric: "Ki"
  quantity-unit: "µM"
  obs-value: 1.43

// query Provide the documented Ki with human H4 receptor (Homo sapiens) as the system for CCCCc1nc(N)nc(N2CC(N)C2)c1OC
// result 0.022

// query Give the reported Ki for CC(C)c1cc(N2CCN(C)CC2)nc(N)n1 (system: human H4 receptor (Homo sapiens)).
// result 0.008

###

Listed below: Ki values for each entry.
molecular target: human H4 receptor (Homo sapiens, UniProt Q9H3N8); construct: expressed in transfected cells; assay: Binding Assay on Recombinant Human Histamine H4 Receptor; conditions: Table 2; [3H] histamine competition binding, membranes of SK-N-MC cells transfected with human H4 receptor; average of results
API: value field is a number in nM; no unit string.

Consider the reported Ki for these compounds:
- compound: "CN[C@@H]1CCN(c2nc(N)nc3c2COCC3)C1 [Example 99]"
  obs-value: 214
- compound: "CC(C)c1cc(N2CC(N)C2)nc(N)n1 [Example 90]"
  obs-value: 14
- compound: "Nc1nc(CC2CCCO2)cc(N2CCNCC2)n1 (stereo not drawn) [Example 230]"
  obs-value: 25
- compound: "CC(C)Cc1cc(N2CCN(C)CC2)nc(N)n1 [Example 146]"
  obs-value: 3
- compound: "Nc1nc(Cc2ccc(Cl)cc2)cc(N2C[C@H]3CNC[C@H]3C2)n1 [Example 237]"
  obs-value: 257
- compound: "Nc1nc(Cc2ccc(Cl)cc2)cc(N2CC[C@@H](N)C2)n1 [Example 235]"
  obs-value: 140
- compound: "Nc1nc(C2CC2)cc(N2CC(N)C2)n1 [Example 122]"
  obs-value: 22
- compound: "COCc1cc(N2CCNCC2)nc(N)n1 [Example 224]"
  obs-value: 26
- compound: "CN[C@@H]1CCN(c2cc(Cc3cccs3)nc(N)n2)C1 [Example 214]"
  obs-value: 19
- compound: "Nc1nc(C2CCOCC2)cc(N2CC[C@@H](N)C2)n1 [Example 175]"
  obs-value: 85

// query Please give the measured Ki for this compound: CN[C@@H]1CCN(c2cc(COC)nc(N)n2)C1 [Example 221]
// result 43

// query Fill in: Ki of Nc1nc(C2CCOCC2)cc(N2CC[C@@H](N)C2)n1 [Example 249] is ___
// result 87

// query Tell me the measured Ki of CCCCc1nc(N)nc(N2CC[C@H](N)C2)c1OC [Example 105] , please.
// result 103

// query Would you kindly share the measured Ki for Nc1nc(CCc2ccccc2)cc(N2CC[C@@H](N)C2)n1 [Example 178] ?
// result 9

// query Would you mind telling me what Ki value was observed for CCCCc1cc(N2C[C@H]3CN(C)C[C@H]3C2)nc(N)n1 [Example 139] ?
// result 138

// query Consider the compound shown here: NCCCNc1cc(C2CCOC2)nc(N)n1 (stereo not drawn) [Example 196] What is its recorded Ki?
// result 203

// query Recorded Ki of CCc1cc(N2CC[C@H](NC)C2)nc(N)n1 [Example 150] , please.
// result 85

// query Which Ki value is on record for Nc1nc(Cc2ccc(Cl)cc2)cc(N2CCNCC2)n1 [Example 233] ?
// result 12

// query Consider the compound shown here: Nc1nc(C2CCCC2)cc(N2CCC3(CCCN3)C2)n1 (single isomer, unassigned) [Example 257] What is its recorded Ki?
// result 31

// query What value of Ki has been reported for the following compound? CC(C)c1cc(N2CCC3(CCCN3)C2)nc(N)n1 (stereo not drawn) [Example 91]
// result 84

// query Name the reported Ki value associated with the compound CC(C)c1cc(N2CC3NCCOC3C2)nc(N)n1 (single isomer, unassigned) [Example 93]
// result 481
